test system: BT-549; assay: NCI tumour cell line growth inhibition, 48 h
Calls of active or inactive are those of the source. Rule as the data show it: active = GI50 up to about 1.1 µM and inactive = higher.
The reader will find reported GI50 values listed item by item below.

# annotated cases, reported GI50 shown
compound	GI50
CC(=O)NC(C)(C)C1CCC(C)=C(c2ccccc2)C1 (stereo not given)	> 100 µM (inactive)
COc1ccc(-c2cc(-c3ccco3)c(C#N)c(=S)n2C2OC(COC(C)=O)C(OC(C)=O)C(OC(C)=O)C2OC(C)=O)cc1 (stereo not given)	2.82 µM (inactive)

Entry `CN(C)c1ccc(C=c2c3cc(O)ccc3n3c2cc(-c2ccccc2)[n+]3C)cc1` — recorded GI50 = 0.383 µM (active)

Entry `CC(=O)[C@@]1(O)CC[C@H]2[C@@H]3C[C@H](C)C4=CC(=O)CC[C@]4(C)[C@H]3[C@@H](O)C[C@@]21C` — recorded GI50 = > 100 µM (inactive)

Entry CC1(C)OCC(C2OC3OC(C)(C)OC3C2N)O1 (stereo not given) — recorded GI50 = > 100 µM (inactive)
